These entries and their values trace back to PubChem BioAssay AID1159580.

# assay.info: chemical genetic growth profiling, strain panel (AID 1159580);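 further: tested at 20 µM; growth read once vehicle control cultures reached saturation at 30 °C; 1 = growth at the plate median or of vehicle wells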
# applied.conditions: S. cerevisiae deletion strains, growth OD, locus YNL298W, strain CLA4, stronger effect = lower value
The whole screen tested about 5,500 compounds, of which about 2,000 (36%) were called active. Not shown: some 18% with an inconclusive outcome. The list shows a part of the results.
Note to self: normalized growth under 1 means y, ties and anything higher get n.

• COC(=O)c1cc(=O)c(O)c2c(O)c(O)ccc2c1 = y
• COc1ccc2c(c1)OC/C(=C/c1ccc(OC)c(OC)c1)C2=O = y
• Cn1c(=O)c2c(ncn2CC(O)CO)n(C)c1=O (stereo not given) = y
• CC(=O)S[C@@H]1CC2=CC(=O)CC[C@]2(C)[C@H]2CC[C@@]3(C)[C@@H](CC[C@@]34CCC(=O)O4)C12 (stereo not given in full) = n
• C=CCc1ccc(OC(=O)c2ccccc2)c(OC)c1 = y
• COc1ccc2c(c1)OC/C(=C\c1ccc(OC)c(O)c1)C2=O = y

====

# assay.info: chemical genetic growth profiling, strain panel (AID 1159580);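 further: tested at 20 µM; growth read once vehicle control cultures reached saturation at 30 °C; 1 = growth at the plate median or of vehicle wells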
# applied.conditions: S. cerevisiae deletion strains, growth OD, locus YHR200W, strain rpn10, stronger effect = lower value
About 2,000 (36%) of roughly 5,500 compounds were called active. Another 18% or so got no clear call; they are omitted. This is one part of the list.
observed.property: normalized growth

- CC[C@@]1(O)C[C@H](O)c2c(cc3c(c2O)C(=O)c2c(O)ccc(O)c2C3=O)[C@H]1C(=O)OC: 0.771
- Oc1cc(O)c2c(c1)O[C@H](c1ccc(O)c(O)c1)[C@H](O)C2: 0.983
- COc1cc2nc(N(C)CCCNC(=O)C3CCCO3)nc(N)c2cc1OC (configuration not stated): 1.01
- Oc1ccc2c(c1)O[C@H](c1ccc(O)c(O)c1)[C@@H](O)C2: 1
- c1ccc2c(c1)CCCC2C1=NCCN1 (configuration not stated): 0.997
- CCC(C)C(=O)OC1CC2(C)C(c3ccoc3)OC(=O)CC23OC2(C)OC34C(OC(=O)C(C)C)C3(O)C(OC(=O)C5(C)OC5C)C5(C)CC3(O)C(C)(C5C(=O)OC)C14O2 (configuration not stated): 1.04
- CC(=O)O[C@H]1C[C@@H](OC(C)=O)C(C)(C)C2CC(=O)[C@]3(C)C(CC[C@@]4(C)[C@H](C(=O)O)OC(=O)C5OC543)[C@]21C (some centres not stated): 1.02
- O=C1C(Cl)=C(Cl)C(=O)C(Cl)=C1Cl: 0.27
- Oc1cc(O)c2c(c1)O[C@H](c1cc(O)c(O)c(O)c1)[C@H](O)C2: 0.994
- C#CCN(C)Cc1ccccc1: 1.01
- O=C(Oc1cc(O)cc2c1C[C@@H](OC(=O)c1cc(O)c(O)c(O)c1)[C@@H](c1cc(O)c(O)c(O)c1)O2)c1cc(O)c(O)c(O)c1: 0.661
- CC(C)NCC(O)COc1cccc2[nH]ccc12 (configuration not stated): 0.978
- COC(=O)C[C@H]1C2(C)CC34OC5(C)O[C@@]6([C@H](OC)C(OC(=O)C(C)C)[C@]7(C)C(/C(=C(/OC)C(C)C)C(=O)O[C@H]7c7ccoc7)[C@@]6(O5)[C@H](OC)[C@@]3(OC)C2OC(C)=O)[C@]14C (some centres not stated): 1.02
- C=C1CCC2[C@](C)(CO)[C@H](O)CC[C@@]2(C)[C@@H]1C/C=C1/C(=O)OC[C@H]1O (some centres not stated): 1.03
- NCCc1cnc[nH]1: 1.02
- CCCCNC(=O)NS(=O)(=O)c1ccc(C)cc1: 0.985
- C[C@]12CCC(=O)C=C1C=CC1C2CC[C@@]2(C)C1CC[C@@]2(O)CCC(=O)O (some centres not stated): 0.984
- COc1ccc2c(c1)OC/C(=C\c1ccc(OC)c(O)c1)C2=O: 0.864
- O=C(Oc1cc(OC(=O)c2ccccc2)c2c(c1)O[C@H](c1ccc(OC(=O)c3ccccc3)c(OC(=O)c3ccccc3)c1)[C@@H](OC(=O)c1ccccc1)C2)c1ccccc1: 1.05
- COc1cc(OC)c2c(c1)O[C@H](c1cc(OC)c(OC)c(OC)c1)[C@H](OC(=O)c1cc(OC)c(OC)c(OC)c1)C2: 0.999
- CCC1(O)CC(OC2CC(N(C)C)C(OC3CC(O)C(OC4CCC(=O)C(C)O4)C(C)O3)C(C)O2)c2c(cc3c(c2O)C(=O)c2c(O)cccc2C3=O)C1C(=O)OC (configuration not stated): 1.01
- Cc1ccc(S(=O)(=O)NC(=O)NN2CCCCCC2)cc1: 0.984
- Oc1cc(O)c2c(c1)O[C@H](c1ccc(O)c(O)c1)[C@@H](O)C2: 0.975
- O=C(O[C@@H]1Cc2c(O)cc(O)cc2O[C@@H]1c1cc(O)c(O)c(O)c1)c1cc(O)c(O)c(O)c1: 0.855
- COc1cc2c(cc1OC)C(=O)c1ccc(OC)c(OC)c1OCC(=O)C2: 1.02
- CCN(CC)C(=O)N1CCN(C)CC1: 1
- CNCCC(Oc1ccc(C(F)(F)F)cc1)c1ccccc1 (configuration not stated): 0.993
